Molecular target: DYRK1A (Homo sapiens, UniProt Q13627)
Construct: made in house
Assay: Kinase inhibition test (DNA-tagged kinase, affinity resin, qPCR readout)
Format: binding
Set-up: key: (−) indicates no effect; (+) indicates weak inhibitory activity; (++) indicates a moderate level of inhibitory activity; (+++) indicates strong inhibitory activity
Settings: 1 μM of compound
readout-kind: DYRK1A inhibitory activity

INSERT INTO measurements (compound, result) VALUES
  ('C#Cc1cn([C@@H]2S[C@H](COC(=O)c3ccc(OC)cc3)[C@@H](O)[C@H]2O)c2ncnc(N)c12 [Compound 7d]', '++'),
  ('NC[C@H]1S[C@@H](n2cc(C(N)=O)c3c(N)ncnc32)[C@H](O)[C@@H]1O [Compound 10c]', '++'),
  ('N#Cc1cn([C@@H]2S[C@H](CN)[C@@H](O)[C@H]2O)c2ncnc(N)c12 [Compound 10b]', '+++'),
  ('C#Cc1cn([C@@H]2S[C@H](COC(=O)c3c(C)cccc3C)[C@@H](O)[C@H]2O)c2ncnc(N)c12 [Compound 7e]', '++'),
  ('NC(=O)c1cn([C@@H]2SC[C@@H](O)[C@H]2O)c2ncnc(N)c12 [Compound 13g]', '++');

-- ask Answer with reported DYRK1A inhibitory activity of C#Cc1cn([C@@H]2S[C@H](CO)[C@@H](O)[C@H]2O)c2ncnc(N)c12 [Compound 3]
-- reply +++

-- ask For NC(=O)NC[C@H]1S[C@@H](n2cc(C(N)=O)c3c(N)ncnc32)[C@H](O)[C@@H]1O [Compound 11aiii] , write its DYRK1A inhibitory activity.
-- reply ++

-- ask For the compound N#Cc1cn([C@@H]2S[C@H](COC(=O)c3ccccc3)[C@@H](O)[C@H]2O)c2ncnc(N)c12 [Compound 7g] , give its measured DYRK1A inhibitory activity value.
-- reply +++

-- ask Answer with the recorded DYRK1A inhibitory activity of C#Cc1cn([C@@H]2S[C@H](CNC(=O)c3ccccc3)[C@@H](O)[C@H]2O)c2ncnc(N)c12 [Compound 8b] only.
-- reply +++

-- ask Give reported DYRK1A inhibitory activity value for N#Cc1cn([C@@H]2SC[C@@H](O)[C@H]2O)c2ncnc(N)c12 [Compound 13f]
-- reply ++
